# target_desc: T1, human VPAC2 receptor (human, UniProt P41587 24-438)
# T1 sequence (looked up): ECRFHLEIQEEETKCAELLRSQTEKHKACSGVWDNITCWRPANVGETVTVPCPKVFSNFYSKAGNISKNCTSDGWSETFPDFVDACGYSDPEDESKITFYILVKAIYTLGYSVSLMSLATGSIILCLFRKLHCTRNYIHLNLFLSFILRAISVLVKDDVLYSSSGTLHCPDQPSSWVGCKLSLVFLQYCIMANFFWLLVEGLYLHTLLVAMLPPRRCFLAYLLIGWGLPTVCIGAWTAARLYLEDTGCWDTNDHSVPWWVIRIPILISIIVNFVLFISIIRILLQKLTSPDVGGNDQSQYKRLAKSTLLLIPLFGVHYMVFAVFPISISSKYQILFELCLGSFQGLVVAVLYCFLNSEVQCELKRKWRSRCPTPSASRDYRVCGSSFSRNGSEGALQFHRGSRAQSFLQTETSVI
# assay_summary: cell-based or functional assay
Where no end group is shown, it is not given here. [ ]: non-standard residue; d: D form. The star is where a group is joined. Hexanoyl = CCCCCC(=O)*; Aib = CC(C)(N)C(=O)O
Measured EC50 cAMP, Alpha Screen, listed per entry for reference.
property_name: EC50 cAMP, Alpha Screen (nM)

{"binder": "HSDAVFTDNYTXLRXQVAAXKYLQSIXNXGGPSSGAPPPS (N-terminal hexanoyl (C6); Orn at 12, 27, 29; Aib at 15, 20) [P326]", "unit_info": "nM", "val": 0.21}
{"binder": "Hexanoyl-HSDAVFTYNYTRLRKQVAAKKYLQSIKNKRYGGPSSGAPPPS [P163]", "unit_info": "nM", "val": 5.53}
{"binder": "Hexanoyl-HSDAVFTDNYTRLRKQLAAKKYLQSIKNKRYGGPSSGAPPPS [P290]", "unit_info": "nM", "val": 0.22}
{"binder": "HSDAVFTDNYTRAKAKVAAKKYLQSIKNKRYGGPSSGAPPPS [P94]", "unit_info": "nM", "val": 696}
{"binder": "Hexanoyl-HSDAVFTDNYTRLQKQVAAKKYLQSIKNKRYGGPSSGAPPPS [P172]", "unit_info": "nM", "val": 0.29}
{"binder": "Hexanoyl-HSDAVFTDNYTRLQKQVAA[Aib]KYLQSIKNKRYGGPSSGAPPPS (ends and bridges not checked) [P250]", "unit_info": "nM", "val": 0.18}
{"binder": "Hexanoyl-HSDAVFTDNYTRLR[Aib]QVAA[Aib]KYLQSIKKGGPSSGAPPPS (ends and bridges not checked) [P351]", "unit_info": "nM", "val": 0.11}
{"binder": "Hexanoyl-HSDAVFTDNYTRLR[Aib]QVAALKYLQSIKNKRYGGPSSGAPPPS (ends and bridges not checked) [P265]", "unit_info": "nM", "val": 0.21}
{"binder": "Hexanoyl-HSDAVFTDNYTRLKKQVAAKKYLQSIKNKRYGGPSSGAPPPS [P171]", "unit_info": "nM", "val": 0.82}
{"binder": "Hexanoyl-HSD[dA]VFTDNYTRLRKQVAAKKYLQSIKNKRYGGPSSGAPPPS [P207]", "unit_info": "nM", "val": 0.86}
{"binder": "Hexanoyl-HSDAVFTDNYTRLRKQVAAKFYLQSIKNKRYGGPSSGAPPPS [P186]", "unit_info": "nM", "val": 0.15}

Each recorded value in this set is attributed to patent US20080026996A1.
